Numbers sourced from ChEMBL document CHEMBL3272305.

test: Toxicity in albino mouse after 72 hrs; type: organism-based; settings: in vivo
reported_endpoint: LD50 at 72 h

[
  {
    "compound": "O=C1CN(/N=C/c2ccc(-c3ccc([N+](=O)[O-])cc3)o2)C(O)=N1 [DANTROLENE]",
    "result": "> 7000 mg/kg"
  },
  {
    "compound": "O=C1CN(/N=C/c2ccc(-c3ccc(Cl)c(Cl)c3)o2)C(=O)N1 [CLODANOLENE]",
    "result": "> 7000 mg/kg"
  },
  {
    "compound": "O=C1NC(=O)N(/N=C/c2ccc(-c3ccc([N+](=O)[O-])cc3)o2)C1O (centres undefined)",
    "result": "> 5000 mg/kg"
  },
  {
    "compound": "O=C1CN(/N=C/c2ccc(-c3ccc(Cl)cc3)o2)C(=O)N1",
    "result": "> 6000 mg/kg"
  }
]
